- Tested on: UACC-257 melanoma
- measurement notes: NCI tumour cell line growth inhibition, 48 h
property label: GI50

CCCN1CCN(c2ccc3nc(-c4ccc5nc(-c6cc(OC)ccc6OC)[nH]c5c4)[nH]c3c2)CC1
20 µM
Cc1cc(-c2nnc(N)nc2-c2ccc(F)cc2)cc(Cl)n1
78.9 µM

Which GI50 value belongs to Cc1cc(I)cc(CN(C)CCN2CCCC2)c1O ?
32.2 µM

// repeat for Cc1cc(N2CCCC2)nc(NC2CCCC(Nc3ccnc4cc(Cl)ccc34)C2)n1 (stereo unspecified) and report
1.99 µM

// repeat for COc1ccc2c(CN3CCC[C@H]3C(=O)O)cc3cc4c(cc3c2c1)OCO4 and report
12.6 µM

// repeat for COc1cccc(-c2nc3sccn3c2-c2ccnc(NCCNS(=O)(=O)c3ccccc3)c2)c1 and report
4.47 µM
